// data source = PubChem BioAssay AID463195

Experiment: wild-type TIM10 yeast growth inhibition – luminescence, uHTS, counter-screen for tim10-1 yeast inhibitor project, primary screen (AID 463195);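 also: wild-type TIM10 isogenic control strain grown at permissive 25 °C; 0% = DMSO yeast wells and 100% = minimal medium wells without yeast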
Conditions: S. cerevisiae TIM10 strain growth, BacTiter-Glo luminescence, 24 h; at 10 µM; hits give high values
In all, about 330,000 compounds went through this assay and about 4,600 (1.4%) were called active. This is one part of a sample in which actives are shown more often than they occur.
Please provide measured inhibition for the entries that follow.
Quick note: give the figure in %, leave out the unit.

Ask: Need inhibition of N/C(=N\OC(=O)Cc1ccccc1[N+](=O)[O-])c1ccc(Br)cc1 , thanks.
Reply: 57.9

Ask: Need inhibition of O=C(CCN1CCN(c2ccccc2)CC1)NNC(=S)Nc1ccccc1 , thanks.
Reply: 1.6

Ask: Need inhibition of Cc1cccc(-n2ncc3c(=O)[nH]c(SCC(=O)Nc4cc(C)on4)nc32)c1 , thanks.
Reply: -12.1

Ask: Need inhibition of Cc1ccc(Nc2nc(CSc3nnc(-c4ccncc4)n3-c3ccccc3C)cs2)cc1 , thanks.
Reply: 19.6

Ask: Need inhibition of CCCCNC(=O)C1CCC(=O)N1CCc1ccccc1 (centres undefined) , thanks.
Reply: -1.71

Ask: Need inhibition of Cc1ccc(SCCC(=O)Nc2cc(C)on2)cc1 , thanks.
Reply: 4.66

Ask: Need inhibition of CC(C)Oc1ccc(S(=O)(=O)N2CCOCC2)cc1NC(=O)C1CCCC1 , thanks.
Reply: 3

Ask: Need inhibition of CCc1c(C)nc(N)n2c(SCC(=O)NC3CCCCC3)nnc12 , thanks.
Reply: -10.7

Ask: Need inhibition of COc1ccccc1-c1n[nH]c2c1[C@H](C)CC[C@H]2C(C)C , thanks.
Reply: 56

Ask: Need inhibition of CN(CC(=O)NCCc1ccccc1)S(=O)(=O)c1cnc[nH]1 , thanks.
Reply: -7.58

Ask: Need inhibition of O=C(CCN1C(=O)[C@@H]2Cc3ccccc3CN2C1=O)NCc1ccccc1 , thanks.
Reply: 4.78

Ask: Need inhibition of O=C1OCCN1C(=O)[C@H]1[C@H](c2ccccc2)C(c2ccc(F)cc2)=NN1c1ccccc1 , thanks.
Reply: 13.6

Ask: Need inhibition of COc1cc(/C=C/CO)cc(OC)c1O[C@@H]1O[C@H](CO)[C@@H](O)[C@H](O)[C@H]1O , thanks.
Reply: -4.81

Ask: Need inhibition of CCOC(=O)c1ccc2[nH]c3c(c2c1)CCCC3NC=O (centres undefined) , thanks.
Reply: 16.6

Ask: Need inhibition of CCCn1c(C)cc(-c2csc(NC(=O)CCc3nc4ccccc4c(=O)[nH]3)n2)c1C , thanks.
Reply: -24.7

Ask: Need inhibition of CCC12CN3CC(CC)(CN(C1)C31C(=O)N(C)c3ccc(C)cc31)C2=O (centres undefined) , thanks.
Reply: -4.81

Ask: Need inhibition of COc1cccc(C(C(=O)NC2CCCC2)N(C(=O)c2ccco2)c2cccc(C(C)=O)c2)c1OC (centres undefined) , thanks.
Reply: 11.8

Ask: Need inhibition of Cn1cnc([N+](=O)[O-])c1Sc1ccccc1 , thanks.
Reply: 21.8

Ask: Need inhibition of C[C@@H]1C(c2ccc(F)cc2)=NN(c2ccc(Br)cc2)[C@H]1C(=O)N1CCOC1=O , thanks.
Reply: 44.2
